Every entry's value here was drawn from the C3SDB collision cross section collection.

Settings: [M+H]+; instrument: DT; single field, calibrated with Agilent tune mix (Agilent)
quantity: collision cross section (N2) (Å²)

Consider the compound "C=Cc1c(C)c2cc3[nH]c(cc4nc(cc5nc(cc1[nH]2)C(C)=C5CCC(=O)O)C(CCC(=O)O)=C4C)c(C)c3C=C" . State its measured collision cross section (N2).
241.4

[P] N[C@@H](Cc1ccc(O)c(O)c1)C(=O)O [3,4-Dihydroxy-L-phenylalanine]
[Q] N[C@@H](CCC(=O)N[C@@H](CSSC[C@H](NC(=O)CC[C@H](N)C(=O)O)C(=O)NCC(=O)O)C(=O)NCC(=O)O)C(=O)O [Glutathione disulfide]
Larger number for collision cross section (N2): P , or Q ? State your choice using its label.
Q
(Q: 224.7 Å², P: 148.7 Å²)

###

Conditions: [M+H]+; instrument: DT; single field, calibrated with ESI Low Concentration Tuning Mix (Agilent)
quantity: collision cross section (N2) (Å²)

Check out these entries, answers already filled in.
Using the record for NC(CCSSCCC(N)C(=O)O)C(=O)O (stereo unspecified) [HOMOCYSTINE] , state its measured collision cross section (N2).
158

Identify measured collision cross section (N2) associated with OC[C@H]1O[C@H](OC[C@H]2OC(O)[C@H](O)[C@@H](O)[C@@H]2O)[C@H](O)[C@@H](O)[C@H]1O (stereo partly specified) [MELIBIOSE]
180.4

Using known records, supply collision cross section (N2) for NCC(N)C(=O)O (stereo unspecified) [2,3-DIAMINOPROPIONATE]
138.1

Retrieve collision cross section (N2) measured for C[C@]12CCC(=O)C=C1CC[C@@H]1[C@@H]2C(=O)C[C@@]2(C)[C@H]1CC[C@]2(O)C(=O)CO [CORTISONE] and print it.
188.3

[I] NCCc1cnc[nH]1 [HISTAMINE]
[II] Nc1nc(=O)c2nc(CNc3ccc(C(=O)N[C@@H](CCC(=O)O)C(=O)O)cc3)cnc2[nH]1 [FOLATE]
Return label of the item with the larger collision cross section (N2). Candidates: I , II . State the label of the item chosen.
II

###

Conditions: [M+H]+; instrument: TW; calibrated with polyalanine and drug standards
quantity: collision cross section (N2) (Å²)

Give collision cross section (N2) for the following compound: "Nc1ccn([C@@H]2O[C@H](CO)[C@@H](O)[C@H]2O)c(=O)n1"
151.1

Consider the compound CCCCCCCCCCOc1cc2c(=O)c(C(=O)OCC)c[nH]c2cc1OCC [DECOQUINATE] . State its measured collision cross section (N2).
216.2

Report collision cross section (N2), nothing else, for this compound: "CCN(CC)Cc1cc(Nc2ccnc3cc(Cl)ccc23)ccc1O"
191.9

Return collision cross section (N2) (reported value) for this compound: "Cc1c(Cl)cccc1Nc1ccccc1C(=O)O"
155.6

Read the entry "CC1(C)[C@@H](O)CC[C@]2(C)[C@H]3C(=O)C=C4[C@@H]5C[C@@](C)(C(=O)O)CC[C@]5(C)CC[C@@]4(C)[C@]3(C)CC[C@@H]12" and write its reported collision cross section (N2).
213.9

Provide measured collision cross section (N2) value, entry: C[C@]12CC[C@@H]3c4ccc(O)cc4CC[C@H]3[C@@H]1C[C@H](O)[C@@H]2O [EPIESTRIOL]
153.6

Check the records and state collision cross section (N2) for CCCCC(=O)O[C@H]1CC[C@H]2[C@@H]3CCc4cc(O)ccc4[C@H]3CC[C@]12C [ESTRADIOL VALERATE]
171

Please look at this compound and report its collision cross section (N2): CO[C@H]1[C@H](O)[C@H](O[C@H]2CC[C@@]3(C=O)[C@H](CC[C@@H]4[C@@H]3CC[C@]3(C)[C@@H](C5=CC(=O)OC5)CC[C@]43O)C2)O[C@@H](C)[C@@H]1O [PERUVOSIDE]
239.4

###

Conditions: [M+H]+; instrument: TW; calibrated with polyalanine and drug standards
quantity: collision cross section (N2) (Å²)

For the compound Cc1ncc(C[n+]2csc(CCO)c2C)c(N)n1 [THIAMINE] , report collision cross section (N2).
155.9

Give the measured collision cross section (N2) for C[C@@H]1C[C@H]2[C@@H]3CCC4=CC(=O)C=C[C@]4(C)[C@@]3(F)[C@@H](O)C[C@]2(C)[C@@]1(O)C(=O)CO [DEXAMETHASONE]
187.9

[1] O=C1O[C@H](CO)[C@@H](O)[C@H](O)[C@H]1O [GLUCONOLACTONE]
[2] CC(=O)OC1C(=O)C2(C)C(O)CC3OCC3(OC(C)=O)C2C(OC(=O)c2ccccc2)C2(O)CC(OC(=O)C(O)C(NC(=O)c3ccccc3)c3ccccc3)C(C)=C1C2(C)C (centres undefined) [PACLITAXEL]
Which gives the smaller collision cross section (N2) number: 1 or 2 ? Write the label of whichever entry you select.
1
(1: 127.6 Å², 2: 278.9 Å²)

###

Details: [M-H]-; instrument: DT; stepped-field
quantity: collision cross section (N2) (Å²)

Provide only the value of recorded collision cross section (N2) for Cc1ncc(COP(=O)(O)O)c(C=O)c1O [Pyridoxal Phosphate]
150.8

[I] N[C@@H](Cc1cnc[nH]1)C(=O)O
[II] CN1c2c(nc(N)[nH]c2=O)NCC1CNc1ccc(C(=O)N[C@H](CCC(=O)O)C(=O)O)cc1 (stereo partly drawn)
I'm curious, which of these has a smaller collision cross section (N2) number: I or II ? To answer, give the label that identifies your chosen option.
I
(I: 130.01 Å², II: 200.57 Å²)

###

Conditions: [M+H]+; instrument: TW; Major Mix IMS/Tof Calibration Kit (Waters)
quantity: collision cross section (N2) (Å²)

For "Nc1nnc(-c2cccc(Cl)c2Cl)c(N)n1" , write its collision cross section (N2).
151.2

Kindly indicate its recorded collision cross section (N2). Item: Cc1nccn1CC1CCc2c(c3ccccc3n2C)C1=O (stereo unspecified)
171.7

# return recorded collision cross section (N2) for entry "O=C(O)Cc1ccccc1Nc1c(Cl)cccc1Cl"
157.7

Give a short answer stating reported collision cross section (N2) for "OCCN(CCO)c1nc(N2CCCCC2)c2nc(N(CCO)CCO)nc(N3CCCCC3)c2n1" .
227.5

In one line, give reported collision cross section (N2) of the entry "CNCC/C=C1/c2ccccc2Sc2ccc(Cl)cc21" .
165.9

Output measured collision cross section (N2) for this item: "OCCN1CCN(CC/C=C2\c3ccccc3Sc3ccc(C(F)(F)F)cc32)CC1"
199.4

###

Details: [M+Na]+; instrument: DT; stepped-field
quantity: collision cross section (N2) (Å²)

Dear colleague, please send me the reported collision cross section (N2) for "CCCCCCCCCCCCC=CC[C@@H](O)[C@H](COP(=O)([O-])OCC[N+](C)(C)C)NC(=O)CCCCCCCCCCCCCCCCCCCC" when you can.
301.6

Answer with the recorded collision cross section (N2) for the compound listed here: "CCCCC/C=C\C/C=C\C/C=C\C/C=C\CCCCCC(=O)OC[C@H](COP(=O)(O)OC[C@H](N)C(=O)O)OC(=O)CCCCC/C=C\C/C=C\C/C=C\C/C=C\CCCCC"
306.8

Fill in reported collision cross section (N2) for this entry: "CCCCCCCCCCCCC=CC[C@@H](O)[C@H](COP(=O)([O-])OCC[N+](C)(C)C)NC(=O)CC=CCC=CCCCCCCCCCCCCCCC"
299.9

###

Settings: [M+Na]+; instrument: DT; single field, calibrated with ESI Low Concentration Tuning Mix (Agilent)
quantity: collision cross section (N2) (Å²)

Kindly indicate its recorded collision cross section (N2). Item: NC(CCCC(=O)O)C(=O)O (stereo not drawn) [AMINOADIPATE]
139.2

State its collision cross section (N2) for this compound: OC[C@@H](O)C(O)[C@@H](O)CO (stereo partly drawn) [XYLITOL]
135.4

Consider the compound "O=c1ccn([C@@H]2O[C@H](CO)[C@@H](O)[C@H]2O)c(=O)[nH]1" and give its recorded collision cross section (N2).
160.9

Provide measured collision cross section (N2) value, entry: "CC(=O)N[C@@H](CC(C)C)C(=O)O"
149.9

Supply measured collision cross section (N2) of OC1C(O)C(O)C(O)C(O)C1O (stereo not drawn) in your reply.
148.6

Give recorded collision cross section (N2). "NC(=O)C[C@H](N)C(=O)O"
129.5

Fill in collision cross section (N2) for record O=C(O)C1(O)C[C@@H](O)C(O)[C@H](O)C1 (stereo partly drawn) [QUINATE]
151.7

Identify the reported collision cross section (N2) for the following entry. NC(CO)Cc1cnc[nH]1 (stereo not drawn)
131.9

###

Details: [M+H]+; instrument: DT; single field, calibrated with ESI Low Concentration Tuning Mix (Agilent)
quantity: collision cross section (N2) (Å²)

Identify the reported collision cross section (N2) for the following entry. "C[C@@H](O)[C@H](N)C(=O)O"
126.7

Specify collision cross section (N2) for N[C@@H](CCC(=O)O)C(=O)O [GLUTAMATE] and stop.
131.1

Consider the molecule O=C/C=C/c1ccccc1 [TRANS-CINNAMALDEHYDE] and give its recorded collision cross section (N2).
121.5

Please report collision cross section (N2) for the following molecule: "Nc1ccnc(=O)[nH]1"
122.8

Let me know recorded collision cross section (N2) for CN[C@@H](CCC(=O)O)C(=O)O [N-METHYLGLUTAMATE] , thanks.
132.2

Give the value of collision cross section (N2) reported for the following: NC(N)=N[C@@H](CC(=O)O)C(=O)O [GUANIDINOSUCCINATE]
136.8
